The values you see were collected from ChEMBL document CHEMBL4177600.

- assayProcedure: Half-life in BALB-C mouse at 8 mg/kg, po by LC-MS/MS analysis
- Assay type: ADME, organism-based
- measurementSetup: in vivo
assayEndpoint: half-life (h)
Give your result in h as a bare value.

Incoming: # get_value(readout='half-life', item= "CS(=O)(=O)N1CCN(Cc2cn3cc(-c4cnc(N)nc4)nc(N4CCOCC4)c3n2)CC1" )
Outgoing: 8.38

---

- assayProcedure: Volume of distribution in BALB-C mouse at 8 mg/kg, iv by LC-MS/MS analysis
- Format: ADME, organism-based
- measurementSetup: in vivo
assayEndpoint: Vd (L/kg)
Give your result in L/kg as a bare value.

Incoming: # get_value(readout='Vd', item= "CS(=O)(=O)N1CCN(Cc2cn3cc(-c4cnc(N)nc4)nc(N4CCOCC4)c3n2)CC1" )
Outgoing: 0.8

---

- targetUnderTest: Vascular endothelial growth factor receptor 2 (Homo sapiens)
- assayProcedure: Inhibition of recombinant human N-terminal GST-tagged VEGFR2 (D807 to V1356 residues) expressed in Sf9 insect cells at 1 uM using Poly(Glu:Tyr)4:1 as substrate by filter binding method relative to control
assayEndpoint: inhibition

For orientation, consider the following solved cases.
CS(=O)(=O)N1CCN(Cc2cc3c(N4CCOCC4)nc(-c4cnc(N)nc4)cn3n2)CC1 ... < 25%
CS(=O)(=O)N1CCN(Cc2nc3c(N4CCOCC4)nc(-c4cnc(N)nc4)c(Cl)n3n2)CC1 ... < 25%
CS(=O)(=O)N1CCN(Cc2cn3nc(-c4cnc(N)nc4)nc(N4CCOCC4)c3n2)CC1 ... < 25%

Next compound, inhibition to be filled in.
Incoming: # get_value(readout='inhibition', item= "CS(=O)(=O)N1CCN(Cc2nc3c(N4CCOCC4)nc(-c4cnc(N)nc4)cn3n2)CC1" )
Outgoing: < 25%

---

- targetUnderTest: Platelet-derived growth factor receptor alpha (Homo sapiens)
- assayProcedure: Inhibition of recombinant human N-terminal GST/His6-tagged PDGFRalpha (Q551 to L1089 residues) expressed in Sf9 insect cells at 1 uM using TRK-C-derived peptide as substrate by filter binding method relative to control
assayEndpoint: inhibition

For orientation, consider the following solved cases.
CS(=O)(=O)N1CCN(Cc2cc3c(N4CCOCC4)nc(-c4cnc(N)nc4)cn3n2)CC1 ... < 25%
CS(=O)(=O)N1CCN(Cc2nc3c(N4CCOCC4)nc(-c4cnc(N)nc4)c(Cl)n3n2)CC1 ... < 25%
CS(=O)(=O)N1CCN(Cc2cn3nc(-c4cnc(N)nc4)nc(N4CCOCC4)c3n2)CC1 ... < 25%

Incoming: # get_value(readout='inhibition', item= "CS(=O)(=O)N1CCN(Cc2nc3c(N4CCOCC4)nc(-c4cnc(N)nc4)cn3n2)CC1" )
Outgoing: < 25%

---

- assayProcedure: Clearance in BALB-C mouse at 8 mg/kg, iv by LC-MS/MS analysis
- Format: ADME, organism-based
- measurementSetup: in vivo
assayEndpoint: clearance (mL/min/kg)
Give your result in mL/min/kg as a bare value.

Incoming: # get_value(readout='clearance', item= "CS(=O)(=O)N1CCN(Cc2cn3cc(-c4cnc(N)nc4)nc(N4CCOCC4)c3n2)CC1" )
Outgoing: 9.33

---

- assayProcedure: AUC (infinity) in BALB-C mouse at 5 mg/kg, po by LC-MS/MS analysis
- Format: ADME, organism-based
- Set-up: dose 5 mg/kg, route oral, time infinity
- measurementSetup: in vivo
assayEndpoint: AUC(0-inf)
Field note: include the unit after the figure.

Incoming: # get_value(readout='AUC(0-inf)', item= "CS(=O)(=O)N1CCN(Cc2nc3c(N4CCOCC4)nc(-c4cnc(N)nc4)c(Cl)n3n2)CC1" )
Outgoing: 5650 ng·h/mL
